Tested on: MDA-MB-231 breast
Assay: NCI-60 one-dose screen, 48 h (100 = growth as untreated, 0 = no growth, -100 = all killed)
Conditions: 10 µM unless noted
This is part of a sample that, as a whole, favours compounds with a hit. Of some 83,000 tested, about 20% had one in any assay.
readout_type: growth (%)
Report the value in % with no unit label.

{"columns": ["molecule", "system_tested", "growth / %"],
 "data": [
  ["CC1CCN(S(=O)(=O)c2ncsc2-c2ccccc2)CC1", "MDA-MB-231 breast", 92]
]}

Just so you know, measured growth for CN1CCN(c2ccc3c(C(N)=O)c(NC(=O)c4ccc(C(C)(C)C)cc4)sc3c2)CC1 came out at 90.6

Just so you know, measured growth for CC(c1ccccc1)N1C(=O)/C(=C/c2csc(C#N)n2)SC1=S (stereo not drawn) came out at 90.1

====

System: BT-549 breast
Experiment: NCI-60 one-dose screen, 48 h
Settings: 10 µM unless noted
Protocol: Growth inhibition of the BT-549 human tumor cell line is measured as a screen for anti-cancer activity. Cells are grown in 96 well plates and exposed to the test compound for 48 hours. Compounds are tested at a single concentration, which is 10^-5 M for most compounds. The reported endpoint is percent growth (GI% or GIPRCNT), where numbers from 0 - 100% represent growth inhibition, and numbers from -100% - 0 represent cell death. For example, a value of 40 represents 60% growth inhibition. […]
This is part of a sample that, as a whole, favours compounds with a hit. Of some 83,000 tested, about 20% had one in any assay. Calls of active or inactive are those of the source. The calls were made as follows: active = growth percent below 10; inactive = the rest.
Mark one answer only. Choices: active, inactive

Consider the following illustrative entries.
{"columns": ["compound", "system_tested", "assigned_label"],
 "data": [
  ["Oc1ccc(CSc2nnc(-c3cnccn3)o2)c2cccnc12", "BT-549 breast", "inactive"],
  ["N#C/C(=C\\c1ccc(-c2ccc(F)cc2)o1)C(=O)Nc1ncc(Cc2ccc(Cl)cc2Cl)s1", "BT-549 breast", "active"],
  ["NC(=O)c1c(NC(=O)c2cccc(OC(F)(F)F)c2)sc2c1CCC(=O)C2", "BT-549 breast", "inactive"],
  ["CC[C@]12C=CCN3CC[C@]4(C(=C(C(=O)OC)C1)Nc1cc5c(cc14)[C@@H]1[C@H](O5)[C@@H](O)[C@@]4(CC)CC(C(=O)OC)=C5Nc6cc(OC)ccc6[C@@]56CCN1[C@@H]46)[C@@H]32", "BT-549 breast", "inactive"],
  ["N#C/C(=C\\c1ccc(Cl)cc1Cl)C(N)=O", "BT-549 breast", "inactive"],
  ["CCOC(=O)CC(=O)CSC1=NC2C(NN1)N(C)C(=O)N2C (centres undefined)", "BT-549 breast", "inactive"],
  ["Nc1nc(-c2cccc([N+](=O)[O-])c2)c(N=Nc2ccccc2Cl)s1", "BT-549 breast", "inactive"],
  ["CCOC(=O)c1nn(-c2ccc(C)cc2)c(=O)c2c(N)c(C#N)c(-c3ccc(OC)cc3)cc12", "BT-549 breast", "inactive"]
]}

Continue with the compound presented below.
Request: Please indicate how the test categorized COc1ccc(Oc2ccc(C3CC(c4cc(OC)c(OC)c(OC)c4)=NN3C(C)=O)cc2)cc1 (centres undefined) .
Result: inactive

====

Tested on: TK-10 renal
Assay: NCI-60 one-dose screen, 48 h (100 = growth as untreated, 0 = no growth, -100 = all killed)
Conditions: 10 µM unless noted
The panel holds about 83,000 compounds, 20% with a hit somewhere; the sample as a whole holds those more often.
readout_type: growth (%)
Report the value in % with no unit label.

{"columns": ["smiles_entry", "unit_label", "growth"],
 "data": [
  ["CS(=O)(=O)c1ccc(-c2nn(-c3ccccc3)cc2/C=N/NC(=O)c2ccncc2)cc1", "%", 97.3],
  ["O=C(O)CNS(=O)(=O)c1ccc(Oc2ccc(S(=O)(=O)NCC(=O)O)cc2)cc1", "%", 101]
]}

Just so you know, measured growth for CCc1ccc(NC(=O)N[C@@H](Cc2cc(F)cc(F)c2)C(=O)N[C@@H]2C(=O)N3CCC[C@H]3C(=O)N3CCO[C@H](C)[C@H]3C(=O)N[C@@H](CO)C(=O)N3C[C@H](C)C[C@H]3C(=O)O[C@H]2C)c(F)c1 came out at 55.9

Just so you know, measured growth for CC1(COc2ccc3ncc(C#Cc4cncc(C(=O)Nc5cc(C(C)(C)C)on5)c4)n3n2)COC1 came out at 91.6

Just so you know, measured growth for Cc1nn(-c2ccc(Br)cc2)c2nc(CCl)[nH]c(=O)c12 came out at 111

Just so you know, measured growth for COc1ccc(S(=O)(=O)n2cc(C=O)c3ccccc32)c(OC)c1 came out at 106

Just so you know, measured growth for O=C1CSC(=O)N1Cc1cc2ccccc2nc1Cl came out at 98.5

Just so you know, measured growth for C#C[C@]1(O)CC[C@H]2[C@@H]3CC=C4c5sc(Nc6ccc(OC)nc6)nc5CC[C@]4(C)[C@H]3CC[C@@]21C came out at 124

Just so you know, measured growth for C=C(C)[C@@H]1CC[C@]2(C(=O)ON)CC[C@]3(C)[C@H](CC[C@@H]4[C@@]5(C)C/C(=C/c6ccc(Br)cc6)C(=O)C(C)(C)[C@@H]5CC[C@]43C)[C@@H]12 came out at 105
